System: HCT-116 colon
test_summary: NCI tumour cell line growth inhibition, 48 h; in the data active = GI50 below about 0.43 µM; inactive = the rest
The categories you may choose from are class 1 (active), class 0 (inactive)

Some solved entries appear below for comparison.
COc1ccc(CCNC(=O)c2ccc(NC3=C(Cl)C(=O)N(Cc4ccccc4)C3=O)cc2)cc1OC
class 0
NC(=O)c1cc(S(=O)(=O)Nc2nnc(-c3ccccc3)c(-c3ccccc3)n2)c(SCc2ccccc2)cc1Cl
class 0
CCCOc1ccc2sc(NC(=O)OC)nc2c1
class 0
C=C1C(=O)O[C@H]2[C@H]1CC/C(COC(=O)/C=C\C(=O)NCc1ccc(Cn3c(=O)sn(CCCC)c3=O)cc1)=C\CC[C@@]1(C)O[C@@H]21
class 1
Cn1cc(C2=C(c3cccc(Br)c3)C(=O)NC2=O)c2ccccc21
class 0
C1=C\COCc2cc(ccc2OCCN2CCCC2)Nc2nccc(n2)-c2cccc(c2)COC/1
class 0
O=C1NC(=O)/C(=C\c2ccccc2)C2=C1CCCC2
class 0
CSc1ccc2c(c1)C(=O)c1c-2n(CCCBr)c(=O)c2cc([N+](=O)[O-])ccc12
class 0

Call for entry O=C1NC(=O)C(c2cccc([N+](=O)[O-])c2)=C1Nc1cc(Cl)c(O)c(Cl)c1 :
class 0
